# METHOD_DESCRIPTION: Half life in cynomolgus monkey
# Assay type: ADME, organism-based, Macaca fascicularis
# SETTINGS: in vivo
QUANTITY_NAME: half-life (h)
Your answer is read as h, so omit the unit and give the number.

Using the record for C[C@H](Cn1ncnn1)n1nnc2cc3c(=O)n(C4CC4)nnc3cc2c1=O , report its half-life.
9.5

* * *

# METHOD_DESCRIPTION: Half life in rat
# Assay type: ADME, organism-based
# SETTINGS: in vivo
QUANTITY_NAME: half-life (h)
Report the figure in h without appending any unit label.

Look at this compound and give its reported half-life. C[C@H](Cn1ncnn1)n1nnc2cc3c(cc2c1=O)OCN(C1CC1)C3=O
0.27

Now this one: C[C@H](Cn1ncnn1)n1nnc2cc3c(=O)n(C4CC4)nnc3cc2c1=O
1.7

Repeat for the following compound: C[C@H](Cn1ncnn1)n1cnc2cc3c(=O)n(C4CC4)nnc3cc2c1=O
1.6

* * *

# System: Rattus norvegicus
# METHOD_DESCRIPTION: Positive allosteric modulation of AMPA receptor in Sprague-Dawley rat adult hippocampus dentate gyrus assessed as increase in field excitatory postsynaptic potential amplitude at 10 mg/kg, ip infused for 30 mins relative to baseline
# Format: functional
# SETTINGS: route intraperitoneal
QUANTITY_NAME: Activity (%)
Your answer should be a plain number; it is taken to be in %.

GET /values?readout=Activity&item= C[C@H](Cn1ncnn1)n1cnc2cc3c(=O)n(CCF)nnc3cc2c1=O
32

Ok, now C[C@H](Cn1ccnn1)n1nnc2cc3c(=O)n(C4CC4)nnc3cc2c1=O
24

Do the same for C[C@H](Cn1nccn1)n1nnc2cc3c(=O)n(C4CC4)nnc3cc2c1=O please
12

Check C[C@H](Cn1ncnn1)n1cnc2cc3c(=O)n(CC(F)(F)F)nnc3cc2c1=O too.
7

Repeat for the following compound: C[C@H](Cn1ncc(C#N)n1)n1cnc2cc3c(=O)n(C4CC4)nnc3cc2c1=O
3

Also need C[C@H](Cn1nccn1)n1cnc2cc3c(=O)n(C4CC4)nnc3cc2c1=O , thanks.
9

Item: C[C@H](Cn1cccn1)n1cnc2cc3c(=O)n(C4CC4)nnc3cc2c1=O
20

* * *

# METHOD_DESCRIPTION: Half life in dog
# Type: ADME, organism-based, Canis lupus familiaris
# SETTINGS: in vivo
QUANTITY_NAME: half-life (h)
Please state the figure in h; there is no need to write the unit.

Quick one: half-life for C[C@H](Cn1ncnn1)n1nnc2cc3c(=O)n(C4CC4)nnc3cc2c1=O ?
3

What about C[C@H](Cn1ncnn1)n1cnc2cc3c(=O)n(C4CC4)nnc3cc2c1=O ?
4.8

* * *

Please provide measured CD for the entries that follow.
# Organism: Rattus norvegicus
# METHOD_DESCRIPTION: Positive allosteric modulation of AMPA receptor in Sprague-Dawley rat embryonic hippocampal neuron assessed as concentration required to double the steady-state glutamate-induced current by patch-clamp assay
# SETTINGS: Hippocampus
Write it as a number; the unit µM goes unstated.

// query CD value for entry C[C@H](Cn1nccn1)n1nnc2cc3c(=O)n([C@H](C)Cn4ncnn4)nnc3cc2c1=O
0.07

And then Cc1nnnn1C[C@@H](C)n1nnc2cc3c(=O)n(C4CC4)nnc3cc2c1=O , what is it?
0.25

Moving on to CC(C)n1nnc2cc3c(=O)n([C@H](C)Cn4ncnn4)nnc3cc2c1=O
0.44

Consider next the molecule C[C@H](Cn1ncnn1)n1cnc2cc3c(=O)n(C4CC4)cnc3cc2c1=O in the same way.
1.4

Moving on to the next molecule: C#CCn1nnc2cc3c(=O)n([C@H](C)Cn4cnnn4)cnc3cc2c1=O
0.25

Next up: C[C@H](Cn1ccnn1)n1nnc2cc3c(=O)n(C4CC4)nnc3cc2c1=O
0.37

And for Cc1nnn(C[C@@H](C)n2nnc3cc4c(=O)n(C5CC5)nnc4cc3c2=O)n1 ?
3.1

And C[C@H](CNS(C)(=O)=O)n1nnc2cc3c(=O)n(C4CC4)nnc3cc2c1=O ?
0.7

Another molecule: C[C@H](Cn1ncnn1)n1nnc2cc3c(=O)n(C4CC4)nnc3cc2c1=O
0.28

And what about the molecule C#CCn1nnc2cc3c(=O)n([C@H](C)Cn4ncnn4)nnc3cc2c1=O ?
0.57
